test system: SARS-CoV-2-NLuc; assay: microbe, parasite or virus in culture; format: cell-based, SARS Coronavirus 2; details: Severe acute respiratory syndrome coronavirus, 48 h; read-out: MPro EC50
pEC50: −log10 of the molar value.
# cutoff 7 applies to pEC50; >= gives true (1), < gives false (0)

Record COc1cc(-c2cc3c(s2)c(=O)n(-c2cncc(C#CC(C)(C)O)c2)c(=O)n3CCC#N)c(Cl)cc1F ; criterion: pEC50 no lower than 7. Met? true (1)

Record COc1cncc(-n2c(=O)c3sc(-c4ccccc4Cl)cc3n(CCC#N)c2=O)c1 ; criterion: pEC50 no lower than 7. Met? true (1)

Record COc1cc(-c2cc3c(s2)c(=O)n(-c2cncc4ccccc24)c(=O)n3Cc2cc(F)c(F)c(F)c2)c(Cl)cc1F ; criterion: pEC50 no lower than 7. Met? false (0)

Record COc1cnc(Cl)c(-c2cc3c(s2)c(=O)n(-c2cncc(C)c2)c(=O)n3CCC#N)c1 ; criterion: pEC50 no lower than 7. Met? true (1)

Record COc1cc(-c2cc3c(s2)c(=O)n(-c2cncc4cnn(C)c24)c(=O)n3CCS(C)(=O)=O)c(Cl)cc1F ; criterion: pEC50 no lower than 7. Met? true (1)

Record COc1ccc(Cl)c(-c2ccc3c(=O)n(-c4cncc5ccc(N6CCOCC6)cc45)c(=O)[nH]c3c2)c1 ; criterion: pEC50 no lower than 7. Met? true (1)

Record COc1cc(-c2cc3[nH]c(=O)n(-c4cncc5ccc(C)nc45)c(=O)c3s2)c(Cl)cc1F ; criterion: pEC50 no lower than 7. Met? true (1)

Record N#CCCn1c(=O)n(-c2cccnc2)c(=O)c2sc(-c3ccccc3C#N)cc21 ; criterion: pEC50 no lower than 7. Met? false (0)

Record COc1cc(-c2cc3c(s2)c(=O)n(-c2cncc4cnn(C)c24)c(=O)n3CC(F)F)c(Cl)cc1F ; criterion: pEC50 no lower than 7. Met? true (1)

Record N#CCCn1c(=O)n(-c2cncc(Cl)c2)c(=O)c2sc(-c3ccccc3C#N)cc21 ; criterion: pEC50 no lower than 7. Met? true (1)

Record Cc1noc(C)c1-c1cc2[nH]c(=O)n(-c3cncc4cnn(C)c34)c(=O)c2s1 ; criterion: pEC50 no lower than 7. Met? false (0)

Record Cc1c2c(-n3c(=O)c4sc(-c5ccccc5C#N)cc4n(CCC#N)c3=O)cncc2nn1C ; criterion: pEC50 no lower than 7. Met? false (0)

Record N#CCCn1c(=O)n(-c2cccnc2)c(=O)c2sc(-c3ccccc3Cl)cc21 ; criterion: pEC50 no lower than 7. Met? true (1)

Record COc1ccc(Cl)c(-c2cnc3c(=O)n(-c4cncc5ccccc45)c(=O)[nH]c3c2)c1 ; criterion: pEC50 no lower than 7. Met? false (0)

Record Cn1ncc2cncc(-n3c(=O)[nH]c4cc(-c5c(F)ccc6[nH]ncc56)sc4c3=O)c21 ; criterion: pEC50 no lower than 7. Met? false (0)

---

target: recombinant SARS-CoV-2 Main protease (Mpro) (Severe acute respiratory syndrome coronavirus 2 (2019-nCoV) (SARS-CoV-2), UniProt P0DTD1); assay: Cov Mpro Biochemical IC50 Assay; settings: recombinant SARS-CoV-2 Mpro 7.5 nM, fluorogenic peptide substrate 40 μM; read-out: MPro IC50
I'd appreciate it if you could supply pIC50 values for the items below.
Field pIC50 (float): negative decimal logarithm of the concentration in molar.

Quick one: pIC50 for CCn1cc2cncc(-n3c(=O)[nH]c4cc(-c5cc(OC)c(F)cc5Cl)sc4c3=O)c2n1 ? 8.29

Quick one: pIC50 for COc1cnc(Cl)c(-c2cc3c(s2)c(=O)n(-c2cncc(C(F)F)c2)c(=O)n3CCC#N)c1 ? 7.85

Quick one: pIC50 for COc1cc(-c2cc3c(s2)c(=O)n(-c2cncc4c2CCCC4)c(=O)n3CCC#N)c(Cl)cc1F ? 8.12

Quick one: pIC50 for COc1ccc(Cl)c(-c2ccc3c(=O)n(-c4cncc5ccc(N6CCC(F)(F)C6)cc45)c(=O)[nH]c3c2)c1 ? 7.10

Quick one: pIC50 for COc1cnc(C#N)c(-c2cc3[nH]c(=O)n(-c4cncc5ccccc45)c(=O)c3s2)c1 ? 7.75

Quick one: pIC50 for COc1cc(-c2cc3c(s2)c(=O)n(-c2cncc4ccsc24)c(=O)n3CCC#N)c(Cl)cc1F ? 8.41

Quick one: pIC50 for COc1cc(-c2cc3c(s2)c(=O)n(-c2cncc4cccnc24)c(=O)n3CCC#N)c(Cl)cc1F (single isomer, unassigned) [Example 1037] ? 6.26

---

I'd appreciate it if you could supply pIC50 values for the items below.
molecular target: recombinant SARS-CoV-2 Main protease (Mpro) (Severe acute respiratory syndrome coronavirus 2 (2019-nCoV) (SARS-CoV-2), UniProt P0DTD1); assay: Cov Mpro Biochemical IC50 Assay; conditions: recombinant SARS-CoV-2 Mpro, fluorogenic peptide substrate; read-out: MPro IC50
Field pIC50 (float): negative decimal logarithm of the concentration in molar.

Quick one: pIC50 for NC(=O)c1ccccc1-c1cc2[nH]c(=O)n(-c3cncc4ccccc34)c(=O)c2cc1F ? 6.00

Quick one: pIC50 for Cn1cc(-c2cccc(Cl)c2-c2ccc3c(=O)n(-c4cncc5ccccc45)c(=O)[nH]c3c2)c(C2CC2)n1 ? 8.21

Quick one: pIC50 for O=C1COc2ccc(-c3cccc(Cl)c3-c3ccc4c(=O)n(-c5cncc6ccccc56)c(=O)[nH]c4c3)cc2N1 ? 7.94

Quick one: pIC50 for O=c1[nH]c2cc(-c3c(Cl)cccc3-c3cccnc3)ccc2c(=O)n1-c1cncc2ccccc12 ? 7.53

Quick one: pIC50 for O=c1[nH]c2cc(-c3cccc4c3CCC4)sc2c(=O)n1-c1cncc2ccccc12 ? 6.21

Quick one: pIC50 for Cn1cc(-c2cccc(Cl)c2-c2cc3[nH]c(=O)n(-c4cncc5ccccc45)c(=O)c3s2)c(C(F)(F)F)n1 ? 8.22

Quick one: pIC50 for CCCOc1ccc(Cl)c(-c2ccc3c(=O)n(-c4cncc5ccccc45)c(=O)[nH]c3c2)c1 ? 6.57

Quick one: pIC50 for O=c1[nH]c2sc(-c3ccccc3)nc2c(=O)n1-c1cncc2ccccc12 ? 6.88

Quick one: pIC50 for CCn1cc(-c2cccc(Cl)c2-c2ccc3c(=O)n(-c4cncc5ccccc45)c(=O)[nH]c3c2)c(C(F)(F)F)n1 ? 7.14

Quick one: pIC50 for COc1cc(-c2cc3[nH]c(=O)n(-c4cncc5ccccc45)c(=O)c3cc2F)c(C#N)cc1F ? 7.86

Quick one: pIC50 for Cn1ccc2cccc(-c3ccc4c(=O)n(-c5cncc6ccccc56)c(=O)[nH]c4c3)c21 ? 5.83

Quick one: pIC50 for O=c1[nH]c2cc(-c3ccccc3Cl)ccc2c(=O)n1-c1cccnc1 ? 6.00

Quick one: pIC50 for COc1cc2c(=O)n(-c3cncc4ccccc34)c(=O)[nH]c2cc1-c1c(Cl)cccc1OC ? 6.88

Quick one: pIC50 for Cc1nc(Cl)ccc1-c1cc2[nH]c(=O)n(-c3cncc4ccccc34)c(=O)c2s1 ? 6.64

Quick one: pIC50 for NC(=O)c1ccccc1-c1cnc2c(=O)n(-c3cncc4ccccc34)c(=O)[nH]c2c1 ? 5.57

Quick one: pIC50 for COc1cccc(C)c1-c1ccc2c(=O)n(-c3cncc4ccccc34)c(=O)[nH]c2c1 ? 6.07

Quick one: pIC50 for O=c1[nH]c2cc(-c3c(Cl)cccc3-c3nc4ccccc4[nH]3)ccc2c(=O)n1-c1cncc2ccccc12 ? 7.57

Quick one: pIC50 for CN(C)C(=O)c1cccc(-c2cccc(Cl)c2-c2ccc3c(=O)n(-c4cncc5ccccc45)c(=O)[nH]c3c2)c1 ? 6.92

Quick one: pIC50 for O=c1[nH]c2cc(-c3c(Cl)cccc3-c3ccc4ncnn4c3)ccc2c(=O)n1-c1cncc2ccccc12 ? 7.46

Quick one: pIC50 for O=C1Nc2ccc(-c3cccc(Cl)c3-c3ccc4c(=O)n(-c5cncc6ccccc56)c(=O)[nH]c4c3)cc2C1(F)F ? 6.42

Quick one: pIC50 for CCOc1ccc(Cl)c(-c2cc3[nH]c(=O)n(-c4cncc5ccccc45)c(=O)c3s2)c1 ? 7.83

Quick one: pIC50 for O=c1[nH]c2cc(-c3ccccc3Cl)sc2c(=O)n1-c1cncc2c1CCCC2 ? 8.03

Quick one: pIC50 for COc1ccc(Cl)c(-c2ccc3c(=O)n(-c4cncc5ccccc45)c(=O)[nH]c3c2)c1F ? 5.45

Quick one: pIC50 for COc1ccc(C#N)c(-c2cc3[nH]c(=O)n(-c4cncc5ccccc45)c(=O)c3cc2OC)c1 ? 7.85

Quick one: pIC50 for O=c1[nH]c2cc(-c3ccccc3Cl)sc2c(=O)n1-c1cncc2ccc(N3CCOCC3)cc12 ? 8.26

Quick one: pIC50 for O=c1[nH]c2cc(-c3cc(O)ccc3Cl)ccc2c(=O)n1-c1cncc2ccccc12 ? 6.42

Quick one: pIC50 for O=c1[nH]c2cc(-c3ccccc3Cl)c(F)cc2c(=O)n1-c1cncc2ccccc12 ? 6.61

Quick one: pIC50 for O=c1c2sc(-c3ccccc3Cl)cc2n(Cc2cccnn2)c(=O)n1-c1cncc2ccccc12 ? 6.91
